target: Cytochrome P450 2C9 (Homo sapiens, UniProt P11712)
Sequence (P11712 whole entry): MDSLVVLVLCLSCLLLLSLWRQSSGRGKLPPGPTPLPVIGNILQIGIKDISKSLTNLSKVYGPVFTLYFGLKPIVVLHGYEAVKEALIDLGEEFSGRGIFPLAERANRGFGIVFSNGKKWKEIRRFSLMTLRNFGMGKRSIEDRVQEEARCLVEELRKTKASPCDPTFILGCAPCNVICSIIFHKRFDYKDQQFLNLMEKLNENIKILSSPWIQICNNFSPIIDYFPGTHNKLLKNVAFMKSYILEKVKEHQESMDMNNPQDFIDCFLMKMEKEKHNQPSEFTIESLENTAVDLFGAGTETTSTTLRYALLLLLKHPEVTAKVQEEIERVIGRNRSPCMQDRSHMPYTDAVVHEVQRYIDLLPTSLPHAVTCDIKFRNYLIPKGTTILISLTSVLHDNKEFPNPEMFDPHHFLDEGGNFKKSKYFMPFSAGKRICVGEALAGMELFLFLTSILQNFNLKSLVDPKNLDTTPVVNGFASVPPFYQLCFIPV
measured property: IC50

Record `O=C(N1C[C@@H]2CN(c3ccccn3)C[C@@H]2C1)N1CCC2(CCCC2)C1` , field IC50: > 30 µM

----------
biological target: Metabotropic glutamate receptor 1 (Homo sapiens, UniProt Q13255); assay: Negative allosteric modulation of human mGlu1 receptor expressed in HEK293A TREx cells assessed as calcium flux at 30 uM after 45 mins relative to glutamate; assay type: functional, cell-based; conditions: HEK293-A
Sequence (Q13255 19-1194 limits assumed): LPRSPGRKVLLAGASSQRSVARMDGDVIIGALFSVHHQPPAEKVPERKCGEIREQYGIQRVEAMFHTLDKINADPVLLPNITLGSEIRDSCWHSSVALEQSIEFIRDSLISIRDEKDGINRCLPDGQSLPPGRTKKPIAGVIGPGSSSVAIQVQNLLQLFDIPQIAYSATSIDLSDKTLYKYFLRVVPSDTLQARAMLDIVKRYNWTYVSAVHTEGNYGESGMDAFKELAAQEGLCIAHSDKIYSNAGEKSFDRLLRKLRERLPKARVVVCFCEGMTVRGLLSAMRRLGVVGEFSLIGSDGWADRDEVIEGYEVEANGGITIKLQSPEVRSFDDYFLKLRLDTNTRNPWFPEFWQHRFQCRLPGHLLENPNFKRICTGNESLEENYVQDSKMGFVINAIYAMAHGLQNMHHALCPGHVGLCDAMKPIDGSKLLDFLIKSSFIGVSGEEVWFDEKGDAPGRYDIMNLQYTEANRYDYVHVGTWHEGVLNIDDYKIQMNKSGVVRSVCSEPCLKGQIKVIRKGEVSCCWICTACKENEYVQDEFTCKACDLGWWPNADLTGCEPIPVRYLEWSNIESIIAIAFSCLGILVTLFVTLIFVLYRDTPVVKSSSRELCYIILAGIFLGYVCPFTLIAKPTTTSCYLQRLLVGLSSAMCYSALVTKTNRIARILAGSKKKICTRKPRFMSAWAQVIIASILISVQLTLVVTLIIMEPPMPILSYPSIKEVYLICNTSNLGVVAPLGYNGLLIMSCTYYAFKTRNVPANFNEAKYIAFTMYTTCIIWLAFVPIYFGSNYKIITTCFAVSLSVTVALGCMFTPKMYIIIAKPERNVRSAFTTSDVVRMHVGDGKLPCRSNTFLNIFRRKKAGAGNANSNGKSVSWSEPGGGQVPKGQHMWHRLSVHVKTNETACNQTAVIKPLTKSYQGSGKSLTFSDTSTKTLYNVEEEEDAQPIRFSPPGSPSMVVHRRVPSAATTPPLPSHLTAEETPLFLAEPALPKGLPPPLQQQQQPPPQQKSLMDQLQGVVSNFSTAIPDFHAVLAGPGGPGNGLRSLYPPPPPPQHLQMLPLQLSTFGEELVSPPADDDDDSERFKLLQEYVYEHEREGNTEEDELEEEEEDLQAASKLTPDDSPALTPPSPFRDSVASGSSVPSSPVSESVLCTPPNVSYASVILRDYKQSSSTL
measured property: %max
Number first, unit second: that is the form wanted.

Recorded results for 5 compounds are shown here.
| smiles representation | tested target | %max |
| --- | --- | --- |
| O=C(N1C[C@@H]2CN(c3cnccn3)C[C@@H]2C1)C12CC3CC(CC(C3)C1)C2 | Metabotropic glutamate receptor 1 (Homo sapiens, UniProt Q13255) | -1.1% |
| O=C(C1CCCCC1)N1C[C@@H]2CN(c3ccccn3)C[C@@H]2C1 | Metabotropic glutamate receptor 1 (Homo sapiens, UniProt Q13255) | 57.7% |
| O=C(N1C[C@@H]2CN(c3ncccn3)C[C@@H]2C1)C12CC3CC(CC(C3)C1)C2 | Metabotropic glutamate receptor 1 (Homo sapiens, UniProt Q13255) | 10.3% |
| O=C(CC12CC3CC(CC(C3)C1)C2)N1C[C@@H]2CN(c3ccccn3)C[C@@H]2C1 | Metabotropic glutamate receptor 1 (Homo sapiens, UniProt Q13255) | 0% |
| CC1(C(=O)N2C[C@@H]3CN(c4ccccn4)C[C@@H]3C2)CCCCC1 | Metabotropic glutamate receptor 1 (Homo sapiens, UniProt Q13255) | 9.3% |

Then there is this compound:
Record `O=C(CC1CCCCC1)N1C[C@@H]2CN(c3ccccn3)C[C@@H]2C1` , field %max: 47.6%

----------
Molecular target: Cytochrome P450 1A2 (Homo sapiens, UniProt P05177)
Sequence (P05177 whole entry): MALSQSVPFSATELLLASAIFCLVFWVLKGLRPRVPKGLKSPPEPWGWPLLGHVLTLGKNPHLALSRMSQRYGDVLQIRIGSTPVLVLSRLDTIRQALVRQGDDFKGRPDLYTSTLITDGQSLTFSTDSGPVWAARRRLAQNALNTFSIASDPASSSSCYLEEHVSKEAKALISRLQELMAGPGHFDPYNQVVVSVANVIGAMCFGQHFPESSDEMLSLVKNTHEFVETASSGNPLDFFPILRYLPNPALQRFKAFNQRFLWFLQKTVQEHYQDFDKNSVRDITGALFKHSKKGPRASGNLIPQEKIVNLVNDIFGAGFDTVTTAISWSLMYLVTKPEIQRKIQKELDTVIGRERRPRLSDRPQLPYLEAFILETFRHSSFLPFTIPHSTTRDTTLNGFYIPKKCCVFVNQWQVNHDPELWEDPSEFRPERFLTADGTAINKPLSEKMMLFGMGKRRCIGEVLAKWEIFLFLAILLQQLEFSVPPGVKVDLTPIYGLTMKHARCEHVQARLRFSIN
measured property: IC50

Record `O=C(N1C[C@@H]2CN(c3ccccn3)C[C@@H]2C1)N1CCC2(CCCC2)C1` , field IC50: > 30 µM

----------
target: Metabotropic glutamate receptor 1 (Homo sapiens); test: Negative allosteric modulation of human mGlu1 receptor expressed in HEK293A TREx cells assessed as calcium flux at 30 uM after 45 mins relative to glutamate; type: functional, cell-based; settings: HEK293-A
Listed next: entries and their corresponding %max.
Provide only the numeric value, understood in %.

Recorded results for 5 compounds are shown here.
| compound | tested target | readout units | %max |
| --- | --- | --- | --- |
| O=C(N1C[C@@H]2CN(c3ccccn3)C[C@@H]2C1)N1CCC2(CCCC2)C1 | Metabotropic glutamate receptor 1 (Homo sapiens) | % | -0.1 |
| O=C(N1C[C@@H]2CN(c3ccccn3)C[C@@H]2C1)C12CC3CC(CC(C3)C1)C2 | Metabotropic glutamate receptor 1 (Homo sapiens) | % | 2.2 |
| O=C(N1C[C@@H]2CN(c3nccs3)C[C@@H]2C1)C12CC3CC(CC(C3)C1)C2 | Metabotropic glutamate receptor 1 (Homo sapiens) | % | 56.6 |
| N#Cc1ncccc1N1C[C@H]2CN(C(=O)C34CC5CC(CC(C5)C3)C4)C[C@H]2C1 | Metabotropic glutamate receptor 1 (Homo sapiens) | % | 1.3 |
| O=C(N1CC2CCCC(C2)C1)N1C[C@@H]2CN(c3ccccn3)C[C@@H]2C1 | Metabotropic glutamate receptor 1 (Homo sapiens) | % | -1.5 |

Record `O=C(N1C[C@@H]2CN(c3ccc(F)cn3)C[C@@H]2C1)C12CC3CC(CC(C3)C1)C2` , field %max: 2.2

Record `O=C(N1C[C@@H]2CN(c3ccncn3)C[C@@H]2C1)C12CC3CC(CC(C3)C1)C2` , field %max: 25.5

Record `N#Cc1cnccc1N1C[C@H]2CN(C(=O)C34CC5CC(CC(C5)C3)C4)C[C@H]2C1` , field %max: 36.8

Record `O=C(N1C[C@@H]2CN(c3cccc(F)n3)C[C@@H]2C1)C12CC3CC(CC(C3)C1)C2` , field %max: 2.3

Record `N#Cc1ccccc1N1C[C@H]2CN(C(=O)C34CC5CC(CC(C5)C3)C4)C[C@H]2C1` , field %max: 6.9

Record `O=C(C1CCCCCC1)N1C[C@@H]2CN(c3ccccn3)C[C@@H]2C1` , field %max: 36.5

Record `N#Cc1cccnc1N1C[C@H]2CN(C(=O)C34CC5CC(CC(C5)C3)C4)C[C@H]2C1` , field %max: 12.2

Record `C[C@H]1CC[C@H](C(=O)N2C[C@H]3CN(c4ccccn4)C[C@H]3C2)CC1` , field %max: 37.9

Record `CC(C)(C)[C@H]1CC[C@H](C(=O)N2C[C@H]3CN(c4ccccn4)C[C@H]3C2)CC1` , field %max: 29.2

Record `O=C(N1CCC2(CCCC2)CC1)N1C[C@@H]2CN(c3ccccn3)C[C@@H]2C1` , field %max: 0.7

Record `O=C(N1CC2CCC(C2)C1)N1C[C@@H]2CN(c3ccccn3)C[C@@H]2C1` , field %max: -5.8

Record `O=C(N1C[C@@H]2CN(c3ncccc3F)C[C@@H]2C1)C12CC3CC(CC(C3)C1)C2` , field %max: 2.1

Record O=C(N1C[C@@H]2CN(c3ccccn3)C[C@@H]2C1)C12C3C4C5C3C1C5C42 (stereo partly drawn) , field %max: 58.7
